Molecular target: T1, human GLP-2 receptor (human, UniProt O95838 1-553)
T1 sequence (looked up): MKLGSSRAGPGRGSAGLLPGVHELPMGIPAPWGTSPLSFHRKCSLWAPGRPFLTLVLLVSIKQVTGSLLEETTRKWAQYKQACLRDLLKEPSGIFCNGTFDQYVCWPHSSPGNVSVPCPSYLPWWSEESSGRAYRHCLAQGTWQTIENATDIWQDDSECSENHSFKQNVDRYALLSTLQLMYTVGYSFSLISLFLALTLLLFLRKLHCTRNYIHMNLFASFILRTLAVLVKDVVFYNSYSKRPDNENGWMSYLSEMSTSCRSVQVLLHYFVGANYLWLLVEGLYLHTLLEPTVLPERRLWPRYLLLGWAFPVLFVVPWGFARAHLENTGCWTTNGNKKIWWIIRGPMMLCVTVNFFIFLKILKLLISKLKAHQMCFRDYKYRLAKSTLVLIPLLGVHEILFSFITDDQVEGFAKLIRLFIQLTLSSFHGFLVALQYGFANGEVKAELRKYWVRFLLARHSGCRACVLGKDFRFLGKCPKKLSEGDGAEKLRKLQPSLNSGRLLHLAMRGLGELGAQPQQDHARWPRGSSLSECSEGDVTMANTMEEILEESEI
Assay: cell-based or functional assay
MEASURED PARAMETER: fold (EC50 vs native GLP-2)
The number alone won't do; follow it with the unit.

HAEGTFSDEYSTILDNLAARDFINWLIQTKITD [GIP-GLP-2 co-agonist 5] : 5.2 fold
HAEGTFISDYSIAMDKLAARDFINWLIQTKITD [GIP-GLP-2 co-agonist 7] : 293 fold
HAEGTFISDYSTILDNLAARDFINWLIQTKGKK [GIP-GLP-2 co-agonist 10] : 18 fold
HGDGTFISDYSTILDNLAARDFINWLIQTKITD [GIP-GLP-2 co-agonist 11] : 20 fold
HADGTFIDDYSTILDNLAARDFINWLIQTKITD [GIP-GLP-2 co-agonist 14] : 9.2 fold

Please examine the following record next.
input: Sample HAEGTFISDYSTILDNLAARDFVNWLLAQKITD [GIP-GLP-2 co-agonist 9] — what was its fold (EC50 vs native GLP-2)?
output: 103 fold
